Where these numbers come from: patent US20250115636A1

Measured Papp at 5 h, 200 μM, listed per entry for reference.
# assay: in vitro
# assay.context: PAMPA
Lab book: enter the figure in ×10⁻⁶ cm/s, no units written.

Example entries begin here.
test.smiles | output.unit | endpoint.result
NCCCC[C@H](NC(=O)[C@@H]1CCCN1C(=O)Cc1cccc2ccccc12)C(=O)NCc1ccccc1 | ×10⁻⁶ cm/s | 0.24
NCCCC[C@H](NC(=O)[C@@H]1CCCN1C(=O)Cc1cccc2ccccc12)C(=O)NCCc1ccccc1 | ×10⁻⁶ cm/s | 0.26
NCCCC[C@H](NC(=O)[C@@H]1CCCN1C(=O)Cc1cccc2ccccc12)C(=O)NCCCc1ccccc1 | ×10⁻⁶ cm/s | 0.17

Attention now turns to another entry.
Task: Look up and report measured Papp at 5 h, 200 μM for this entry: NCCCC[C@H](NC(=O)[C@@H]1CCCN1C(=O)Cc1cccc2ccccc12)C(=O)NCCc1ccc(-c2ccccc2)cc1
Output: 0.9

###

# Tested on: me3-RCC1
# assay: Cellular N-terminal methylation assay, me3-RCC1
# Type: cell-based, human
# assay.context: Homo sapiens, HCT-116; HCT116 cells; read-out: Cellular IC50 on me3-RCC1
pIC50: −log10 of the molar value.
quantity.kind: pIC50

Task: Write down measured pIC50 (me3-RCC1) for this compound. NCCCC[C@H](NC(=O)[C@@H]1CCCN1C(=O)Cc1cccc2ccccc12)C(=O)NCCc1ccccc1 [Compound 1d]
Output: ~4.30
